Experiment: in vitro
Details: human, Caco-2
OBSERVABLE: Papp at 105 min (×10⁻⁶ cm/s)
Express your answer in ×10⁻⁶ cm/s, writing the number without its unit.

Which value of Papp at 105 min has been reported for O=C(O)CCCC[C@@H]1SC[C@@H]2NC(=O)N[C@@H]21 in the records?
3.35

====

Target: SMVT (Homo sapiens, UniProt Q9Y289)
Sequence (Q9Y289 whole entry): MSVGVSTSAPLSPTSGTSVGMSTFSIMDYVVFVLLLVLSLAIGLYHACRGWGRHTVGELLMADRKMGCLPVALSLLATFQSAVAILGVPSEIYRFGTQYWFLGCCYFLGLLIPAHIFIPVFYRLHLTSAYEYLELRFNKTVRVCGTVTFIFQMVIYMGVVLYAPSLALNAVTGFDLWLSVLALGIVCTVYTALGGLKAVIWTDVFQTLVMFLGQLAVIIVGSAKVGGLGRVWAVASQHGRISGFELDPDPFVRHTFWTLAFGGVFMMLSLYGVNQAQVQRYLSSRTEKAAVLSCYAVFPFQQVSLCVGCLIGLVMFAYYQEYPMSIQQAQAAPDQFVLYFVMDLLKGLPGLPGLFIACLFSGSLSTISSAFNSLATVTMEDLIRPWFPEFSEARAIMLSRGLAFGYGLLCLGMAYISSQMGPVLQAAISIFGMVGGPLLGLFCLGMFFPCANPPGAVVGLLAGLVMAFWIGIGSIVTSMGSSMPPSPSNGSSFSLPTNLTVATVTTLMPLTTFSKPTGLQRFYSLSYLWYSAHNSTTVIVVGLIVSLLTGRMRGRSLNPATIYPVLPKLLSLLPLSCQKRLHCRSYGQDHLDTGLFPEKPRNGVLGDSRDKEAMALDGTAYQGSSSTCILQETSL
Settings: read-out: Ki, competitive inhibition of RI-K(biotin)-Tat9 transport; Caco-2, inhibitors at 10 and 20 μM
OBSERVABLE: pKi
Friendly reminder that pKi comes from taking -log10 of the concentration in mol/L.

Which value of pKi has been reported for N[C@@H](CCCCNC(=O)CCCC[C@@H]1SC[C@@H]2NC(=O)N[C@@H]21)C(=O)O in the records?
5.49

====

Experiment: in vitro
Details: human, Caco-2
OBSERVABLE: Papp A→B at 105 min (×10⁻⁶ cm/s)
Express your answer in ×10⁻⁶ cm/s, writing the number without its unit.

Which value of Papp A→B at 105 min has been reported for OC[C@@H](O)[C@@H](O)[C@H](O)[C@H](O)CO in the records?
2.12

====

Target: SMVT in BBMECs (Bos taurus, UniProt A1L530)
Construct: endogenous in cells; host or cells: primary bovine brain microvessel endothelial cells (BBMECs)
Sequence (A1L530 1-638): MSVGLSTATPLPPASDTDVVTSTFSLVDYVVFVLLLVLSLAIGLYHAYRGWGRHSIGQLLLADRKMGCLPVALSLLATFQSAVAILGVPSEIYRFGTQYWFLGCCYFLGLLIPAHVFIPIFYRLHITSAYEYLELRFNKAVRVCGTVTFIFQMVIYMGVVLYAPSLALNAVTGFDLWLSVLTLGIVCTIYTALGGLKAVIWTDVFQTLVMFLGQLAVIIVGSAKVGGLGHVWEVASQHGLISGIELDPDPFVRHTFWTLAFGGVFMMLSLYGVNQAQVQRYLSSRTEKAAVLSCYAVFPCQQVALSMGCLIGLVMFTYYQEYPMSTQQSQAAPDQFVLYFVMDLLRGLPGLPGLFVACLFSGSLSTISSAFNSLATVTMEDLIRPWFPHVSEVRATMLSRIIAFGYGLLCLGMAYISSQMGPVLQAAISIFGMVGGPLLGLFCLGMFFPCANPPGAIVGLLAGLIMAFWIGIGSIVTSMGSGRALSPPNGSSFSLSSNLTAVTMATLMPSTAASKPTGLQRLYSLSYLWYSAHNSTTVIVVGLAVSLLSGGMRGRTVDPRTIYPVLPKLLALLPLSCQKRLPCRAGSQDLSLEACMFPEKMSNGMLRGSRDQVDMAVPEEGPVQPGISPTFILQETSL
Test: Biotin uptake by BBMECs (characterization of biotin transporter)
Assay type: in vitro ADME, bovine
OBSERVABLE: inhibition of biotin uptake

Which value of inhibition of biotin uptake has been reported for N[C@@H]1[C@H](CCCCC(=O)O)SC[C@@H]1N [diaminobiotin] in the records?
very weak

Which value of inhibition of biotin uptake has been reported for N=C1N[C@H]2[C@H](CS[C@H]2CCCCC(=O)O)N1 [iminobiotin] in the records?
very weak

Source: patent US7740882B2
